Value source: PubChem BioAssay AID504848

Assay: Confirmation screen for delayed death inhibitors of the malarial parasite plastid, 96 hour incubation; also: % is scaled to controls: 0 for no effect and ±100 for the full control effect; nearly all actives have a fitted effect of over 60% in size
Settings: P. falciparum luciferase growth in erythrocytes; series mostly up to 28.7 µM
The whole screen tested about 2,300 compounds, of which about 1,400 (61%) were called active. Another 29% or so got no clear call; they are omitted. Calls follow the shape of the dose curve; as a rule, active = well fitted inhibition curve with a large enough effect; inconclusive = small, poorly fitted or top-dose-only effect, or effect the other way; inactive = no such curve, though single readings can be large or run the other way. So high a share suggests a set chosen from earlier hits. The list shows a part of the results.
Please answer using one outcome listed in class 1 for active, class 0 for inactive

[[record]]
compound = "CCc1ccc(C(=O)NNc2ccc(C)c(Cl)c2)cc1"
classification = "class 0"


## Task For `O=C(O)CCn1c(-c2ccccc2)cc2c1CCCC2=O` , which call appears in the assay record?
## Result class 0
